assay: Volume of distribution at steady state in male Sprague-Dawley rat at 1 mg/kg, iv by LC-MS/MS analysis; format: ADME, organism-based; conditions: in vivo, read-out: Vdss
Reported Endpoint: Vd (L/kg)

O=S(=O)(/C=C/c1cn(-c2ccccc2)nc1-c1cccnc1)c1ccccc1; 0.52

----------
assay: Bioavailability in male Sprague-Dawley rat at 10 mg/kg, IG by LC-MS/MS analysis; type: ADME, organism-based; conditions: in vivo, po
Reported Endpoint: bioavailability (%)

O=S(=O)(/C=C/c1cn(-c2ccccc2)nc1-c1cccnc1)c1ccccc1; 67.2

----------
assay: Half-life in male Sprague-Dawley rat at 5 mg/kg, ip by LC-MS/MS analysis; format: ADME, organism-based; conditions: in vivo
Reported Endpoint: half-life (h)

O=S(=O)(/C=C/c1cn(-c2ccccc2)nc1-c1cccnc1)c1ccccc1; 1.37

----------
target: UniProt P07900; test: Binding affinity to HSP90alpha (unknown origin) assessed as dissociation constant by ITC analysis
pKd: −log10 of the molar value.
Reported Endpoint: pKd

O=S(=O)(/C=C/c1cn(-c2ccccc2)nc1-c1cccnc1)c1ccccc1; 5.40

----------
tested on: HCT-116; assay: Antiproliferative activity against human HCT-116 cells assessed as inhibition of cell proliferation incubated for 72 hrs by MTT assay; type: functional, cell-based; conditions: HCT-116, 72 h
pIC50: −log10 of the molar value.
Reported Endpoint: pIC50

Cc1ccc(-c2nn(-c3ccccc3)cc2/C=C/C(=O)N2CCCCC2C(N)=O)cc1 (stereo not given); 4.96
CCCN(C)C(=O)/C=C/c1cn(-c2ccccc2)nc1-c1cccnc1; 5.03
Cc1cccc(S(=O)(=O)/C=C/c2cn(-c3ccccc3)nc2-c2cccnc2)c1; 5.37
COc1cccc(-c2nn(-c3ccccc3)cc2/C=C/C(=O)N2CCCCC2C(N)=O)c1 (stereo not given); 4.99
O=C(/C=C/c1cn(-c2ccccc2)nc1-c1cccnc1)N1CCCC1; 5.07
O=C(/C=C/c1cn(-c2ccccc2)nc1-c1cccnc1)N1CCCCCC1; 5.14
NC(=O)C1CCCCN1C(=O)/C=C/c1cn(-c2ccccc2)nc1-c1cccc(N)c1 (stereo not given); 5.04

----------
biological target: Heat shock protein HSP 90-beta/Hsp90 co-chaperone Cdc37 (Homo sapiens) (UniProt P08238+Q16543); experiment: Inhibition of His-tagged HSP90(unknown origin)/GST-tagged CDC37 (unknown origin) protein-protein interaction at 100 uM preincubated with HSP90 for 1 hrs followed by CDC37 addition and measured after 1 hrs by HTRF assay relative to control; format: protein-complex assay
Label scheme for inhibition: lower than 60% is 0.0, 60% and above is 1.0.

O=C(/C=C/c1cn(-c2ccccc2)nc1-c1cccnc1)N1CCCCCC1; 1.0
Cc1ccc(-c2nn(-c3ccccc3)cc2/C=C/C(=O)N2CCCCC2C(N)=O)cc1 (stereo not drawn); 0.0
NC(=O)C1CCCCN1C(=O)/C=C/c1cn(-c2ccccc2)nc1-c1cccc(C(=O)O)c1 (stereo not drawn); 0.0
Cc1ccc(S(=O)(=O)/C=C/c2cn(-c3ccccc3)nc2-c2cccnc2)cc1; 1.0
NC(=O)C1CCCCN1C(=O)/C=C/c1cn(-c2ccccc2)nc1-c1cncc(C(F)(F)F)c1 (stereo not drawn); 0.0
NC(=O)C1CCCCN1C(=O)/C=C/c1cn(-c2ccccc2)nc1-c1ccncc1 (stereo not drawn); 1.0
O=C(/C=C/c1cn(-c2ccccc2)nc1-c1cccnc1)N1CCCC1; 1.0
NC(=O)C1CCCCN1C(=O)/C=C/c1cn(-c2ccccc2)nc1-c1cccnc1 (stereo not drawn); 1.0
Cc1cccc(S(=O)(=O)/C=C/c2cn(-c3ccccc3)nc2-c2cccnc2)c1; 1.0
O=C(/C=C/c1cn(-c2ccccc2)nc1-c1cccnc1)N1CCCCC1; 1.0
NC(=O)C1CCCCN1C(=O)/C=C/c1cn(-c2ccccc2)nc1-c1ccco1 (stereo not drawn); 0.0
NC(=O)C1CCCCN1C(=O)/C=C/c1cn(-c2ccccc2)nc1-c1ccccc1 (stereo not drawn); 0.0
NC(=O)C1CCCCN1C(=O)/C=C/c1cn(-c2ccccc2)nc1-c1cccnc1Br (stereo not drawn); 0.0
Cc1ccccc1S(=O)(=O)/C=C/c1cn(-c2ccccc2)nc1-c1cccnc1; 1.0
Cc1cc(-c2nn(-c3ccccc3)cc2/C=C/C(=O)N2CCCCC2C(N)=O)ccc1Cl (stereo not drawn); 0.0
NC(=O)C1CCCCN1C(=O)/C=C/c1cn(-c2ccccc2)nc1Cc1ccccc1 (stereo not drawn); 0.0
NC(=O)C1CCCCN1C(=O)/C=C/c1cn(-c2ccccc2)nc1-c1cccc([N+](=O)[O-])c1 (stereo not drawn); 0.0
N#Cc1cccc(-c2nn(-c3ccccc3)cc2/C=C/C(=O)N2CCCCC2C(N)=O)c1 (stereo not drawn); 0.0
O=S(=O)(/C=C/c1cn(-c2ccccc2)nc1-c1cccnc1)c1ccccc1; 1.0
NC(=O)C1CCCCN1C(=O)/C=C/c1cn(-c2ccccc2)nc1-c1cccc(Br)c1 (stereo not drawn); 0.0
NC(=O)C1CCCCN1C(=O)/C=C/c1cn(-c2ccccc2)nc1-c1cccc(F)c1 (stereo not drawn); 0.0
COc1cccc(-c2nn(-c3ccccc3)cc2/C=C/C(=O)N2CCCCC2C(N)=O)c1 (stereo not drawn); 1.0
Cc1ccccc1-c1nn(-c2ccccc2)cc1/C=C/C(=O)N1CCCCC1C(N)=O (stereo not drawn); 0.0
NC(=O)C1CCCCN1C(=O)/C=C/c1cn(-c2ccccc2)nc1-c1cncc(Br)c1 (stereo not drawn); 1.0
CCCN(CCC)C(=O)/C=C/c1cn(-c2ccccc2)nc1-c1cccnc1; 1.0
Cc1ccc(-c2nn(-c3ccccc3)cc2/C=C/C(=O)N2CCCCC2C(N)=O)cc1C (stereo not drawn); 1.0
CCOC(=O)c1cccc(-c2nn(-c3ccccc3)cc2/C=C/C(=O)N2CCCCC2C(N)=O)c1 (stereo not drawn); 0.0
COc1cc(-c2nn(-c3ccccc3)cc2/C=C/C(=O)N2CCCCC2C(N)=O)ccc1Cl (stereo not drawn); 0.0
COc1cncc(-c2nn(-c3ccccc3)cc2/C=C/C(=O)N2CCCCC2C(N)=O)c1 (stereo not drawn); 1.0
Cc1cc(-c2nn(-c3ccccc3)cc2/C=C/C(=O)N2CCCCC2C(N)=O)ccc1F (stereo not drawn); 0.0
NC(=O)C1CCCCN1C(=O)/C=C/c1cn(-c2ccccc2)nc1-c1ccccn1 (stereo not drawn); 1.0
NC(=O)C1CCCCN1C(=O)/C=C/c1cn(-c2ccccc2)nc1-c1cccc(N)c1 (stereo not drawn); 1.0
NC(=O)C1CCCCN1C(=O)/C=C/c1cn(-c2ccccc2)nc1-c1ccc(Cl)cc1 (stereo not drawn); 0.0
COc1cc(-c2nn(-c3ccccc3)cc2/C=C/C(=O)N2CCCCC2C(N)=O)ccc1Br (stereo not drawn); 0.0
